Cited source for all entries: ChEMBL document CHEMBL4619779

target: Sortase A (Staphylococcus aureus, UniProt Q9S446, DELTAN24); test: Inhibition of Staphylococcus aureus SrtA delta N24 mutant expressed in Escherichia coli BL21 (DE3) assessed as reduction in IsdA (64 to 323 residues) transpeptidation incubated for 20 mins by SDS-PAGE analysis
Recorded IC50 for the following compounds

- givenSmiles: "Cc1ccc(Cn2c(=O)sn(Cc3ccccc3)c2=O)cc1"
  experimentalTarget: "Sortase A (Staphylococcus aureus, UniProt Q9S446, DELTAN24)"
  IC50, µM: 35.7
- givenSmiles: "O=c1sn(-c2cccc3ccccc23)c(=O)n1Cc1ccccc1O"
  experimentalTarget: "Sortase A (Staphylococcus aureus, UniProt Q9S446, DELTAN24)"
  IC50, µM: 32.2
- givenSmiles: "COc1ccc(Cn2c(=O)sn(-c3c(C)noc3C)c2=O)cc1"
  experimentalTarget: "Sortase A (Staphylococcus aureus, UniProt Q9S446, DELTAN24)"
  IC50, µM: 5
